assayed-system: T1, GPR1, PathHunter β-Arrestin CHO cell line (human, UniProt P46091 1-355)
T1 sequence (P46091 whole entry, species assumed, looked up): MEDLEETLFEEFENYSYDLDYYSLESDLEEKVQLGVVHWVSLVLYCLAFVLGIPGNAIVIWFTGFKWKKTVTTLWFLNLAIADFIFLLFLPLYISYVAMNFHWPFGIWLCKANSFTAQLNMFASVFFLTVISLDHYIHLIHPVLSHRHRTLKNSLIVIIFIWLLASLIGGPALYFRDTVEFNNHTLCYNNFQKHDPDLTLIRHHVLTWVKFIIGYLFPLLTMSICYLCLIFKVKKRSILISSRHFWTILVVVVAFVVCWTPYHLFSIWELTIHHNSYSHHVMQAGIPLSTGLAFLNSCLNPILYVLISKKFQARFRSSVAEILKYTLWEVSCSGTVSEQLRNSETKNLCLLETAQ
experimental-protocol: cell-based or functional assay
// reported % Max Activity, PathHunter β-Arrestin agonist for each item listed
Only the number, expressed in %, is required.

Query: % Max Activity, PathHunter β-Arrestin agonist; subject: AGEDPHSFYFPGQFAF [human chemerin C16 peptide] 87.9

Query: % Max Activity, PathHunter β-Arrestin agonist; subject: AGEDPHGYFLPGQFA [mouse chemerin C15 peptide] 27.8

Query: % Max Activity, PathHunter β-Arrestin agonist; subject: AGEDPHSFYFPGQFAFS [human chemerin C17 peptide] 80.9

Continuing:
Query: % Max Activity, PathHunter β-Arrestin agonist; subject: AGEDPHSFYFPGQFA [human chemerin C15 peptide] 10.6
